src = patent US7253144B2

Biological target: human β2AR expressed in an insect cell (Sf9 cell) (Homo sapiens)
Sequence (P07550 whole entry): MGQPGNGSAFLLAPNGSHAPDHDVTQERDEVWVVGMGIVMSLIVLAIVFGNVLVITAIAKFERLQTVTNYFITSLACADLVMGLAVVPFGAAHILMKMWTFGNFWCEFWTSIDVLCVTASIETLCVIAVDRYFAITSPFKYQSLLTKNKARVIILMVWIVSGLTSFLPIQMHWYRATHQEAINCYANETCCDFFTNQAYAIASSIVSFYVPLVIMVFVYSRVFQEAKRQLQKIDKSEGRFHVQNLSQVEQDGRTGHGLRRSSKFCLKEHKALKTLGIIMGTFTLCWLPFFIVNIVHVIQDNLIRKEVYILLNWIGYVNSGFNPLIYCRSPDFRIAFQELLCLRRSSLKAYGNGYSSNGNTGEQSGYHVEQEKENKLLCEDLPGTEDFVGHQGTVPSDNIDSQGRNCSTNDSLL
pKd: −log10 of the molar value.
Property Name: pKd

INSERT INTO measurements (compound, target_under_test, numeric_result) VALUES
  ('CCCc1ccccc1OCC(O)CNC(C)C (stereo not shown) [[^3H]DHA, Dihidroalprenolol]', 'human β2AR expressed in an insect cell (Sf9 cell) (Homo sapiens)', 8.41);

====

Molecular target: thioredoxin-fused β2AR-Gs and liposome complex
Test: Ligand binding saturation experiment with [3H]DHA on reconstituted membrane fraction
Details: average of three independent experiments; 0 to 25 nM [3H]DHA, 25° C., 60 minutes; read-out: binding constant (Kd value), average
Property Name: Kd (nM)

INSERT INTO assay_data (molecule, property_name, value_unit, numeric_result) VALUES
  ('CCCc1ccccc1OCC(O)CNC(C)C (stereo not shown) [[^3H]DHA, Dihidroalprenolol]', 'Kd', 'nM', 5.5);
